# System: RARa homodimer (NR concentration 270 nM)
# Assay Name: PBM binding z-score (relative to random genomic background probes); higher = stronger binding; sequences stand for … in GC…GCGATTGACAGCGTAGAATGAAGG
So basically, the class depends on measured PBM binding z-score, and the ranges are bottom (below 0.1), middle (0.1 to below 1), top (1 or more)

                        input_sequence   class
 0  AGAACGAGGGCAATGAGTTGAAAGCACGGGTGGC  bottom
 1  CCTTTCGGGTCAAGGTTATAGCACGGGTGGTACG  middle
 2  ACTAGTTGGTCAGCTGAGGTCACAGACAATTCGG  middle
 3  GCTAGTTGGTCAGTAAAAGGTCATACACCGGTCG     top
 4  CCTAGCAGGGCAGGGTCACTCAAGCATTTCGCTT  bottom
 5  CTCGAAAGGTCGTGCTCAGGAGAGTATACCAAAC  middle
 6  GGTATTAGTTGAAAGGGCAACCGAATGATTCTCG     top
 7  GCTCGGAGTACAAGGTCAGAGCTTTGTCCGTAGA  bottom
 8  TTTAGTTGGTCACGGAGGTCACACACGACGGGTA     top
 9  TCTAGTTGATCAAAGGTCACACACTCGAAATGCG     top
10  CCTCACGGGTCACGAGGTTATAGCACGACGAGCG  middle

----------
Listed here are sequences together with their documented PBM binding z-score.
# Tested on: PXR:RXRa (NR concentration 270 nM, RXRa partner concentration 90 nM)
# Assay Name: PBM binding z-score (relative to random genomic background probes); higher = stronger binding; sequences stand for … in GC…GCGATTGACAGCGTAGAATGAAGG
Readout: PBM binding z-score

>>> print(df.to_string())
                        input_sequence  endpoint_value
 0  ACTATTAGTTGACTTAGGGTAACCGATACGACGC           0.483
 1  GCTCGGACGACAAGGTCAGAGCTTTGTCCGTAGA            1.73
 2  TCATATAGGTAAAGGTGGAAGTCGAACGATATGA           0.357
 3  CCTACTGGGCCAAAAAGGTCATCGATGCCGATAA            4.69
 4  TAATATAGGTAAAGGTGAAAGTCGAACGATATGA            1.02
 5  ACGGACAGGTGAGTGAAGGTAACTCAGCTGGACG          -0.142
 6  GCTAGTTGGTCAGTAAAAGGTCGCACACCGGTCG            2.07
 7  CCAGATAGGTGAAAGGTAACTCAGTCTGGTACGC            1.02
 8  CCTGTTAGGTCAATGGTCAGCTAAAGCAGCTCGC            1.43
 9  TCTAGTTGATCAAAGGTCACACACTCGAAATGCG            5.73
10  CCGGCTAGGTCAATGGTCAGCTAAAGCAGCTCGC           0.817
11  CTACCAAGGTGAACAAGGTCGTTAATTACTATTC            2.76

----------
# Tested on: PPARa:RXRa (NR concentration 270 nM, RXRa partner concentration 90 nM)
# Assay Name: PBM binding z-score (relative to random genomic background probes); higher = stronger binding; sequences stand for … in GC…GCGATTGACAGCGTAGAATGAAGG
Given measured PBM binding z-score, output 1 if it is greater than or equal to 1 and -1 if not.

                       input_sequence  class
0  ATCTCTAGGTAAAAGTTCACTGAATCCCGAGGAT      1
1  GCTCACGGGTCAAAGGTTATAGCATGAATAGAAT      1
2  CCTATTAGTTGACAATAAGGGCAACCGAAGCTCG     -1
3  CCTAGCAGGCCAATCTGGGGCACTCAAGGCTTGA     -1
4  CCTAGCAGGACAATCTGGGTCACTCAAGGCTTGA      1
5  TAGCCTAGCTCATTGGGCCAGTATAGTACGCATC     -1
